All values here come from patent US20170342144A1.

- target-entity: T1, human TGFβ2 (human, UniProt P61812 303-414)
- T1 construct: also called TGFβ2 homodimer
- T1 sequence: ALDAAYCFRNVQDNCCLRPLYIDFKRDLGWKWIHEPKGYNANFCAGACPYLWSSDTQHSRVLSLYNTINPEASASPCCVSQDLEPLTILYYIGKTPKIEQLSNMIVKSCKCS
- run-description: Biacore off-rate vs wt GC1008, 50 nM
observable: kd var/kd wt
The answer should be a number; do not append a unit.

D56Q (antibody, V domains shown, GC1008 IgG4 variant) VH: QVQLVQSGAEVKKPGSSVKVSCKASGYTFSSNVISWVRQAPGQGLEWMGGVIPIVQIANYAQRFKGRVTITADESTSTTYMELSSLRSEDTAVYYCASTLGLVLDAMDYWGQGTLVTVSS VL: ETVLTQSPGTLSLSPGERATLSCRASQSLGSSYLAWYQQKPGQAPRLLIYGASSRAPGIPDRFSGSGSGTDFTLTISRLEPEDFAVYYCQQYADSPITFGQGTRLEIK | 1.3
S31T (antibody, V domains shown, GC1008 IgG4 variant) VH: QVQLVQSGAEVKKPGSSVKVSCKASGYTFSTNVISWVRQAPGQGLEWMGGVIPIVDIANYAQRFKGRVTITADESTSTTYMELSSLRSEDTAVYYCASTLGLVLDAMDYWGQGTLVTVSS VL: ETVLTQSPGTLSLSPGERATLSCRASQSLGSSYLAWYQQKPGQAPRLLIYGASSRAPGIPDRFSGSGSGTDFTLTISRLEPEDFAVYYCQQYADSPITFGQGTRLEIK | 1.2

Task: Give reported kd var/kd wt value for Y27S (antibody, V domains shown, GC1008 IgG4 variant) VH: QVQLVQSGAEVKKPGSSVKVSCKASGSTFSSNVISWVRQAPGQGLEWMGGVIPIVDIANYAQRFKGRVTITADESTSTTYMELSSLRSEDTAVYYCASTLGLVLDAMDYWGQGTLVTVSS VL: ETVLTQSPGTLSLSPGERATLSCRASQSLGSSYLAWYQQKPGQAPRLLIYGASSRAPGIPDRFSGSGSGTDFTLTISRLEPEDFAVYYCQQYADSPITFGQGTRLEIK
Output: 1.5
